Where do these numbers come from? They come from the supplement of paper PMC6555819.

This listing pairs sequences with measured PBM binding z-score.
# Tested on: RXRa DBDmut IVT, anti-RXR (DBD mutation: RXRa K156A/R161A, NR concentration 90 nM)
# Protocol details: PBM binding z-score (relative to random genomic background probes); higher = stronger binding; sequences stand for … in GC…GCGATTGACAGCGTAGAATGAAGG
Test readout: PBM binding z-score

>>> value_reported("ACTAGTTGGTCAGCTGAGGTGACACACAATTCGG")
-0.108
>>> value_reported("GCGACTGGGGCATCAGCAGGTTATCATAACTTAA")
-0.0902
>>> value_reported("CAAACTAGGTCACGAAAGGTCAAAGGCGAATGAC")
1.99
>>> value_reported("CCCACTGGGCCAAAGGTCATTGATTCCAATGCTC")
0.468
>>> value_reported("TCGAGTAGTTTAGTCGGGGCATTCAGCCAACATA")
0.57
>>> value_reported("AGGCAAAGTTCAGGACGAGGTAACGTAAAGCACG")
2.98
>>> value_reported("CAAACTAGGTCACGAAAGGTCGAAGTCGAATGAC")
2.17
>>> value_reported("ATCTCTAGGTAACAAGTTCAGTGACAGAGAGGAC")
0.868
>>> value_reported("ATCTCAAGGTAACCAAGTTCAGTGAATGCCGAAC")
1.01
>>> value_reported("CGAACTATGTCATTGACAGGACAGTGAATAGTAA")
0.491
>>> value_reported("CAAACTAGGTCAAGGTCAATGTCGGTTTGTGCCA")
2.94
>>> value_reported("CCTCCTGGGCCATTCAGAGGTCATTGATCATATG")
0.494
>>> value_reported("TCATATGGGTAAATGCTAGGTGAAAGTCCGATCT")
0.923
>>> value_reported("CGTCCAAGGTCAATGCTAGGTCAGTGCAAGCATT")
3.53
>>> value_reported("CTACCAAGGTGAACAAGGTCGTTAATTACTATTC")
1.48
>>> value_reported("TCATATAGGTAAAGGTGACAGTCGAACGATATGA")
0.827
>>> value_reported("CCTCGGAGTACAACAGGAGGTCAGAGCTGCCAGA")
1.27
>>> value_reported("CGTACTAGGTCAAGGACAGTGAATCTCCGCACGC")
1.21
>>> value_reported("AGTCAAAGTTCAGGAGGAGGTAACGTAAAGCACG")
3.04
>>> value_reported("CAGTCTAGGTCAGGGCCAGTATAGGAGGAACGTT")
0.701
>>> value_reported("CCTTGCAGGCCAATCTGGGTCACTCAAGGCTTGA")
0.233
>>> value_reported("ATACCAAGGTGATCGTGAGGTCGTTGCTACTAAC")
0.967
>>> value_reported("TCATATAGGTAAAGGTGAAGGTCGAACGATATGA")
0.787
>>> value_reported("CCTACTTGGCCAAAAAGGTCATTGATGCCGATAA")
1.55
>>> value_reported("ATCTCTAGGTAACCGAGTTCAGTGAATGCCGAAC")
1.39
>>> value_reported("CCTCGGAGGACTGAAGGTCAGAGCTGTCCGCTTT")
-0.27
